Test system: SF-539 CNS
Assay: NCI-60 one-dose screen, 48 h (100 = growth as untreated, 0 = no growth, -100 = all killed)
Conditions: 10 µM unless noted
About 83,000 compounds went through this panel and 20% of them were active in at least one assay; those are over-represented in the sample as a whole.
reported property: growth (%)
# output: bare number, implied unit %

SF-539 CNS data for "Cc1ccc(C)c(-n2c(-c3ccc(Br)cc3)csc2=NC(=O)c2ccccc2F)c1" ; its growth: 89

SF-539 CNS data for "C=C(CN1CC=CCC1)[C@@H]1CC[C@]2(CO)CC[C@]3(C)[C@H](CC[C@@H]4[C@@]5(C)CC[C@H](O)C(C)(C)[C@@H]5CC[C@]43C)[C@@H]12" ; its growth: 91.1

SF-539 CNS data for "Clc1ccc(-c2cn3ccsc3n2)c(Cl)c1Cl" ; its growth: 88

SF-539 CNS data for CCC(C)Nc1ccc(NC(C)CC)cc1 (stereo not given) ; its growth: 90.7

SF-539 CNS data for "C=CCn1c(SCC(=O)Nc2ccc(C(=O)/C=C/c3cc(OC)c(OC)c(OC)c3)cc2)nnc1-c1cc(-c2ccc(OC)cc2)nc2ccccc12" ; its growth: 90.9
